// data source = ChEMBL document CHEMBL1201862

- Tested on: UO-31
- Procedure Details: NCI tumour cell line growth inhibition, 48 h
Activity calls are given as the source filed them. Cut-off read from the data, not from the text of the source: active = GI50 up to about 1.1 µM and inactive = higher.
Parameter: GI50

Molecule: Cc1ccc(NC(=O)CC(=O)n2nc(C)c(/N=N/c3ccc(S(=O)(=O)CCOS(=O)(=O)O)cc3)c2C)cc1
Parameter: GI50
Reported Value: > 100 µM (inactive)
//
Molecule: Cc1cc2cc3c(cc2c(-c2ccc(N)cc2)n1)OCO3
Parameter: GI50
Reported Value: 29.2 µM (inactive)
//
Molecule: COC(=O)N/N=C(\C)c1sc(-c2nc(C)c(/C(C)=N/NC(=O)OC)s2)nc1C
Parameter: GI50
Reported Value: > 100 µM (inactive)
//
Molecule: Sc1nnc(Cc2ccc(Cl)cc2)[nH]1
Parameter: GI50
Reported Value: 32.4 µM (inactive)
//
Molecule: Cc1nc2c(=O)n(C)c(=O)nc-2n(-c2ccc(Cl)cc2)c1C
Parameter: GI50
Reported Value: 80.4 µM (inactive)
//
Molecule: CNC1C(O)C(OC2C(N)CC(N)C(OC3OC(C(C)O)C(O)C(O)C3N)C2O)OCC1(C)O (centres undefined)
Parameter: GI50
Reported Value: > 100 µM (inactive)
//
Molecule: CCOC(=O)C(Sc1ccccc1)c1c(OC)cc(=O)oc1/C=[N+](/[O-])c1ccc(N(C)C)cc1 (centres undefined)
Parameter: GI50
Reported Value: 18.5 µM (inactive)
//
Molecule: Cc1cc(Cl)nc(NC(=O)CSc2ccc(Cl)cc2)n1
Parameter: GI50
Reported Value: > 100 µM (inactive)
//
Molecule: COc1ccc(C(OCC2OC(n3ccc(Oc4c(F)c(F)c(F)c(F)c4F)nc3=O)CC2OP(OCCC#N)N(C(C)C)C(C)C)(c2ccccc2)c2ccc(OC)cc2)cc1 (centres undefined)
Parameter: GI50
Reported Value: > 100 µM (inactive)
